Numbers sourced from patent US20230022724A1.

Reported IC90 values for a set of molecules
# Test system: Acinetobacter baumannii ATCC17978
# test_protocol: Antimicrobial susceptibility testing: 90% growth inhibitory concentration (IC90) determination
# Type: cell-based
# condition_set: Acinetobacter baumannii, ATCC17978, 16 h, 90% growth inhibitory concentration, Acinetobacter baumannii ATCC17978, Iso-Sensitest broth, OD 600 nm over 16 h; read-out: ATCC17978 IC90
Where a name gives a salt, the structure may show the parent alone.
Record the value in nM, omitting the unit from your answer.

>>> value_reported("COc1ccc(-c2cnc3c(Nc4ccc(C(=O)N5CCC(N(C)C)C5)cc4)nccn23)cc1 (centres unmarked)")
5900
>>> value_reported("NCC1CCN(C(=O)c2ccc(Nc3nccn4c(-c5ccc(OC(F)F)cc5)cnc34)cc2Br)CC1 [Example 5, hydrochloride]")
140
>>> value_reported("COc1ccc(-c2cnc3c(Nc4ccc(C(=O)N5CCOCC5)cc4)nccn23)cc1")
580
>>> value_reported("N#CCOc1ccc(-c2cnc3c(Nc4ccc(C(=O)N5CCC(CN)CC5)c(Cl)c4)nccn23)c(F)c1F")
49
>>> value_reported("COc1ccc(-c2cnc3c(Nc4ccc(C(=O)N5CCN(CCN(C)C)CC5)c(Cl)c4)nccn23)c(Cl)c1F")
110
>>> value_reported("CN(C)CCN1CCN(C(=O)c2ccc(Nc3nccn4c(-c5ccc(OCC#N)c(F)c5F)cnc34)cc2Br)CC1")
280
>>> value_reported("N#CCOc1ccc(-c2cnc3c(Nc4ccc(C(=O)N5CCN(C(=O)N6CCN[C@@H](CO)C6)CC5)c(Cl)c4)nccn23)c(F)c1F")
41
>>> value_reported("COc1ccc(-c2cnc3c(Nc4ccc(C(=O)N5CCN(CCO)CC5)cc4)nccn23)cc1")
1100
>>> value_reported("COc1ccc(-c2cnc3c(Nc4ccc(C(=O)N5CC5)c(Cl)c4)nccn23)c(F)c1F")
1600
>>> value_reported("CNCCNC(=O)C1CCN(C(=O)c2ccc(Nc3nccn4c(-c5ccc(OCC#N)c(F)c5F)cnc34)cc2Cl)CC1 [Example 32, trifluoroacetate]")
300

Looking up COc1ccc(-c2cnc3c(Nc4ccc(C(=O)N5CCNC(C(=O)O)C5)c(Cl)c4)nccn23)c(F)c1F (centres unmarked) , I found its IC90 recorded as 1900

###

# System: Acinetobacter baumannii ATCC17978
# test_protocol: Antimicrobial susceptibility testing: 90% growth inhibitory concentration (IC90) determination
# Assay type: cell-based
# condition_set: Acinetobacter baumannii, ATCC17978, 16 h, 90% growth inhibitory concentration, Acinetobacter baumannii ATCC17978, Iso-Sensitest broth, OD 600 nm over 16 h; read-out: ATCC17978 IC90
Structures can show the parent of a compound that is named as a salt.
Reported IC90 values for a set of compounds
Record the value in nM, omitting the unit from your answer.

Recorded IC90, per entry:
>>> value_reported("COc1ccc(-c2cnc3c(Nc4ccc(C(=O)N5CCC(C(=O)N[C@@H]6CCNC6)CC5)c(Cl)c4)nccn23)c(F)c1F [Example 39, hydrochloride]")
200
>>> value_reported("N#Cc1cc(Nc2nccn3c(-c4ccc(OC(F)F)cc4)cnc23)ccc1C(=O)N1CCC(CN)CC1")
1500

// returns IC90 for N#CCOc1ccc(-c2cnc3c(Nc4ccc(C(=O)N5CCC(c6nnn[nH]6)CC5)c(Cl)c4)nccn23)c(F)c1F with Acinetobacter baumannii ATCC17978; value = 280

// returns IC90 for C#CCOc1ccc(-c2cnc3c(Nc4ccc(C(=O)N5CCC(CN)CC5)c(Cl)c4)nccn23)c(F)c1F with Acinetobacter baumannii ATCC17978; value = 85

// returns IC90 for N#CCOc1ccc(-c2cnc3c(Nc4ccc(C(=O)N5CCC(c6cnc[nH]6)CC5)c(Cl)c4)nccn23)c(F)c1F with Acinetobacter baumannii ATCC17978; value = 140

// returns IC90 for CN(C)CCNC1CCN(C(=O)c2ccc(Nc3nccn4c(-c5ccc(OCC#N)c(F)c5Cl)cnc34)cc2Cl)CC1 with Acinetobacter baumannii ATCC17978; value = 79

// returns IC90 for CN(C)CCN1CCN(C(=O)c2ccc(Nc3nccn4c(-c5ccc(OC(F)F)cc5)cnc34)cc2Cl)CC1 with Acinetobacter baumannii ATCC17978; value = 140

// returns IC90 for N#CCOc1ccc(-c2cnc3c(Nc4ccc(C(=O)N5CCC(n6cnnc6)CC5)c(Cl)c4)nccn23)c(F)c1F with Acinetobacter baumannii ATCC17978; value = 150

// returns IC90 for N#CCOc1ccc(-c2cnc3c(Nc4ccc(C(=O)N5CCN(c6ncccn6)CC5)c(Cl)c4)nccn23)c(F)c1F with Acinetobacter baumannii ATCC17978; value = 690

// returns IC90 for N#CCOc1ccc(-c2cnc3c(Nc4ccc(C(=O)N5CCC(c6ccncc6)CC5)c(Cl)c4)nccn23)c(F)c1F with Acinetobacter baumannii ATCC17978; value = 870

// returns IC90 for COc1ccc(-c2cnc3c(Nc4ccc(C(=O)N5CCC(O)(CCN(C)C)CC5)c(Cl)c4)nccn23)cc1F with Acinetobacter baumannii ATCC17978; value = 140

###

Reported IC90 values for a set of compounds
# Test system: Acinetobacter baumannii ATCC17978
# test_protocol: Antimicrobial susceptibility testing: 90% growth inhibitory concentration (IC90) determination
# Assay type: cell-based
# condition_set: Acinetobacter baumannii, ATCC17978, 16 h, 90% growth inhibitory concentration, Acinetobacter baumannii ATCC17978, Iso-Sensitest broth, OD 600 nm over 16 h; read-out: ATCC17978 IC90
Structures can show the parent of a compound that is named as a salt.
Record the value in nM, omitting the unit from your answer.

Recorded IC90, per entry:
>>> value_reported("COc1ccc(-c2cnc3c(Nc4ccc(C(=O)N5CCN(CCN(C)C)CC5)c(Cl)c4)nccn23)cc1F [Example 55, hydrochloride]")
140
>>> value_reported("CNCC(=O)N1CCN(C(=O)c2ccc(Nc3nccn4c(-c5ccc(OC)c(F)c5)cnc34)cc2Cl)CC1 [Example 18, hydrochloride]")
180
>>> value_reported("N#CCOc1ccc(-c2cnc3c(Nc4ccc(C(=O)N5CCC(C(=O)N6CCNCC6CO)CC5)c(Cl)c4)nccn23)c(Cl)c1F (stereo not shown) [Example 31, trifluoroacetate]")
320

Looking up COc1ccc(-c2cnc3c(Nc4ccc(C(=O)N5CCN(CCN(C)C)CC5)c(Br)c4)nccn23)cc1F [Example 81] , I found its IC90 recorded as 290

###

# System: Acinetobacter baumannii ATCC17978
# test_protocol: Antimicrobial susceptibility testing: 90% growth inhibitory concentration (IC90) determination
# Assay type: cell-based
# condition_set: Acinetobacter baumannii, ATCC17978, 16 h, 90% growth inhibitory concentration, Acinetobacter baumannii ATCC17978, Iso-Sensitest broth, OD 600 nm over 16 h; read-out: ATCC17978 IC90
reported_endpoint: IC90 (nM)
Record the value in nM, omitting the unit from your answer.

Recorded IC90, per entry:
>>> value_reported("COc1ccc(-c2cnc3c(Nc4ccc(C(=O)N5CCC(O)(CC(=O)N(C)C)CC5)c(Cl)c4)nccn23)cc1F [Example 106]")
540
>>> value_reported("COc1ccc(-c2cnc3c(Nc4ccc(C(=O)N5CCC(C(=O)NC[C@H](O)[C@@H](O)[C@H](O)[C@H](O)CO)CC5)c(Cl)c4)nccn23)cc1F [Example 107]")
260
>>> value_reported("CNCCN1CCN(C(=O)c2ccc(Nc3nccn4c(-c5ccc(OC)c(F)c5)cnc34)cc2Cl)CC1 [Example 20]")
130

Looking up COc1ccc(-c2cnc3c(Nc4ccc(C(=O)N5CCN(CCNCCO)CC5)c(Cl)c4)nccn23)cc1F [Example 43] , I found its IC90 recorded as 140

Looking up COc1ccc(-c2cnc3c(Nc4ccc(C(=O)N5CCCCC5)cc4)nccn23)cc1Cl [Example 65] , I found its IC90 recorded as 1500

Looking up N#CCOc1cc(Cl)c(-c2cnc3c(Nc4ccc(C(=O)N5CCC(C(=O)N6CCNC(CO)C6)CC5)c(Cl)c4)nccn23)cc1F (stereo not drawn) [Example 15] , I found its IC90 recorded as 110

###

# Tested on: Acinetobacter baumannii ATCC17978
# test_protocol: Antimicrobial susceptibility testing: 90% growth inhibitory concentration (IC90) determination
# Format: cell-based
# condition_set: Acinetobacter baumannii, ATCC17978, 16 h, 90% growth inhibitory concentration, Acinetobacter baumannii ATCC17978, Iso-Sensitest broth, OD 600 nm over 16 h; read-out: ATCC17978 IC90
Where a name gives a salt, the structure may show the parent alone.
Reported IC90 values for a set of molecules
Record the value in nM, omitting the unit from your answer.

>>> value_reported("N#CCOc1ccc(-c2cnc3c(Nc4ccc(C(=O)N5CCN(CCN6CCC(C(N)=O)C6)CC5)c(Cl)c4)nccn23)c(F)c1F (stereo not drawn)")
42
>>> value_reported("N#CCOc1ccc(-c2cnc3c(Nc4ccc(C(=O)N5CCN(CCN6CC(c7nnn[nH]7)C6)CC5)c(Cl)c4)nccn23)c(F)c1F [Example 105, trifluoroacetate]")
360

Looking up CN(C)CCN1CCN(C(=O)c2ccc(Nc3nccn4c(-c5ccc(OCC#N)c(F)c5F)cnc34)cc2Cl)CC1 , I found its IC90 recorded as 64
